# credit: patent US9163256B2

Study System: CfEcR-DEF mutant F48W (Choristoneura fumiferana, UniProt O77255, F331W)
Sequence (P28702 299-449): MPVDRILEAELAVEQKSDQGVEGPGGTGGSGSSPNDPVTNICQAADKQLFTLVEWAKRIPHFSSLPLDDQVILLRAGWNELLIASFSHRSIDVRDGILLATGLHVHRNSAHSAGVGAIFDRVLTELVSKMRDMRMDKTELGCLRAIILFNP
Sequence (O77255 entry or part of it F331W): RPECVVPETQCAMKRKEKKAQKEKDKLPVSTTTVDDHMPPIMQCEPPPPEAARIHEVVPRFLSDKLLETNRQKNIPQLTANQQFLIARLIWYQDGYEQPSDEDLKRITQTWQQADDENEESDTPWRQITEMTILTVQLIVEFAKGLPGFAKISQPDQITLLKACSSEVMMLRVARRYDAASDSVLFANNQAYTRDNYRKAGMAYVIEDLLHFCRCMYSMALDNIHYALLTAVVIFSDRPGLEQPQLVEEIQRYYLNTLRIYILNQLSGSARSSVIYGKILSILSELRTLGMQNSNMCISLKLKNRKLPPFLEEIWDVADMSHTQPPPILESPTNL
Method Description: cell-based
We begin with a simple list: items and their reported EC50.
# output: bare number, implied unit µM

Looking up Cc1cc(C)cc(C(=O)N(NC(=O)c2cccc(C(C)C)c2C)C(C)(C)C)c1 , I see its EC50 listed as 0.77

Now for a further compound.
Per the record, CCc1cccc(C(=O)NN(C(=O)c2cc(C)cc(C)c2)C(C)(C)C)c1C has EC50 of 1.53

* * *

Study System: CfEcR-DEF mutant R95W (Choristoneura fumiferana, UniProt O77255, R378W)
Sequence (O77255 entry or part of it R378W, one chain of several): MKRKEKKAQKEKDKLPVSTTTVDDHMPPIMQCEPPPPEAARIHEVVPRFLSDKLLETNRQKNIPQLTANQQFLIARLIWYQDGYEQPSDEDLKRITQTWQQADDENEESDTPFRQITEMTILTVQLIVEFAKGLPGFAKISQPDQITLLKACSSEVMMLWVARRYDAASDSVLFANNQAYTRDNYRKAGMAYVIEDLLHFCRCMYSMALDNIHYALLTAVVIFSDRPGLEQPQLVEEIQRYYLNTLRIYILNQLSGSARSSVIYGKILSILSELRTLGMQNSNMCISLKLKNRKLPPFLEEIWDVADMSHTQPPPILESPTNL
Method Description: cell-based
Condition Notes: mutant R95W; read-out: EC50
pEC50: −log10 of the molar value.
Recorded measurements of pEC50, one per entry

CfEcR-DEF mutant R95W (Choristoneura fumiferana, UniProt O77255, R378W) assay, molecule CC(C)(O)CC[C@@H](O)[C@](C)(O)[C@H]1CC[C@@]2(O)C3=CC(=O)[C@@H]4C[C@@H](O)[C@@H](O)C[C@]4(C)[C@H]3CC[C@]12C [20E, 20-hydroxyecdysone] , recorded pEC50 = < 4.48

New cases:
Value sought: pEC50, system CfEcR-DEF mutant R95W (Choristoneura fumiferana, UniProt O77255, R378W), item CC(C)CC[C@@H](O)[C@](C)(O)[C@H]1CC[C@@]2(O)C3=CC(=O)[C@@H]4C[C@@H](O)[C@@H](O)C[C@]4(C)[C@H]3CC[C@]12C [PonA, ponasterone A] . Result: < 4.48

* * *

Study System: CfEcR-DEF mutant M54T (Choristoneura fumiferana, UniProt O77255, M337T)
Sequence (O77255 entry or part of it M337T, one chain of several): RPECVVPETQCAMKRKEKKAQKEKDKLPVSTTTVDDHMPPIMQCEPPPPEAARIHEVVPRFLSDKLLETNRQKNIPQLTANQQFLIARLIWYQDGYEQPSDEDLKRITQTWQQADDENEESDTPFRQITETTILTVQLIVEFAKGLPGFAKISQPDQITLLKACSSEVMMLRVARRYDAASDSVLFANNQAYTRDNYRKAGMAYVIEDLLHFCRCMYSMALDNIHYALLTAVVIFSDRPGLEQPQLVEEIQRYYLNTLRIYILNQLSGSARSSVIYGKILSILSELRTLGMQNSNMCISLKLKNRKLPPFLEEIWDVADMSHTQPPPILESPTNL
Method Description: cell-based
Condition Notes: mutant M54T; read-out: EC50
Parameter: EC50

Briefly, EC50 measured for CC(C)(O)CC[C@@H](O)[C@](C)(O)[C@H]1CC[C@@]2(O)C3=CC(=O)[C@@H]4C[C@@H](O)[C@@H](O)C[C@]4(C)[C@H]3CC[C@]12C [20E, 20-hydroxyecdysone] : > 33 µM

Shift focus to the following entry.
What the record says about CC(C)CC[C@@H](O)[C@](C)(O)[C@H]1CC[C@@]2(O)C3=CC(=O)[C@@H]4C[C@@H](O)[C@@H](O)C[C@]4(C)[C@H]3CC[C@]12C : EC50 is 9.46 µM

* * *

Study System: CfEcR-DEF mutant M125W (Choristoneura fumiferana, UniProt O77255, M408W)
Sequence (O77255 entry or part of it M408W, one chain of several): as the sequence (O77255 entry or part of it M337T, one chain of several) above, with T131M, M202W counted along it
Method Description: GAL4-driven luciferase reporter assay in NIH3T3 cells
Assay type: cell-based
Condition Notes: mutant M125W; read-out: EC50
Experimental: This construct was prepared in the same way as in switch 1.1 above except wild-type CfEcR-DEF was replaced with mutant CfEcR-DEF comprising a ligand binding domain comprising a substitution mutation selected from Table 1 below. […] Reporter Assays: Cells were harvested 40 hours after adding ligands. […] Luciferase activity was measured using Dual-Luciferase reporter assay system from Promega Corporation following the manufacturer's instructions. […]
Listed next: entries and their corresponding EC50.

// assay CfEcR-DEF mutant M125W (Choristoneura fumiferana, UniProt O77255, M408W), entry CC(C)(O)CC[C@@H](O)[C@](C)(O)[C@H]1CC[C@@]2(O)C3=CC(=O)[C@@H]4C[C@@H](O)[C@@H](O)C[C@]4(C)[C@H]3CC[C@]12C [20E, 20-hydroxyecdysone] , EC50 value = > 33 µM

Here's the next entry for you.
Value (EC50, CfEcR-DEF mutant M125W (Choristoneura fumiferana, UniProt O77255, M408W)) for record CC(C)CC[C@@H](O)[C@](C)(O)[C@H]1CC[C@@]2(O)C3=CC(=O)[C@@H]4C[C@@H](O)[C@@H](O)C[C@]4(C)[C@H]3CC[C@]12C = > 33 µM
